tested on: MS2 coat protein; assay: apparent KD of MS2 coat protein; designed switch direction (-1 OFF switch, 1 ON switch): 1; higher = weaker reporter binding; settings: input ligand: none
We use 50 nM as the dividing line for apparent KD of MS2 coat protein: on or above the line is MET, below is NOT MET.

As a guide, the following entries are already answered.
sequence-input	label-class
CGCCAGAGAACAGGAUAUGGGCCGCGGCCUAAGGGCUGCUAACUCACAUGAGGAUCACCCAUGUCCCAGAAGGGUUCCUGGCUG [Gexeso] (Eterna round: R96, puzzle: Same State NG 2)	NOT MET
GGCGUCUGUCAAGGAUAUGCUACCGUUUCGGUAGCAGAAGGUGAUCACAUGAGGAUCACCCAUGUUUAGGCCAACAGGCCCGCC (Eterna round: R96, puzzle: Same State NG 1)	MET
GAGUGGCAGUUAGGAUAUAUAGUGAUAAUUACAAUAGAAGGAACAGACAUGAGGAUCACCCAUGUAGGACUAAUCCAGAGAGAG [Parity 38 - Jieux - Same State NG 1] (Eterna round: R96, puzzle: Same State NG 1)	NOT MET
GGAAACUUGAGAGGAUAUGUAGAGGAUCACCCUACAGAAGGCUCAUUUGAGAGGAUAUGUAGAGGAUCACCCUACAGAAGGCUC [pwkr ssNG DX.13] (Eterna round: R96, puzzle: Same State NG 1)	MET

Could you now consider this next sequence?
## Task hey, is apparent KD of MS2 coat protein for this one >= 50 nM? GUUACAUGAGGAUCACCCAUGUAUGUGUGGGAGUAAGUGUCUUAGGAUAUCUAAUAUUUAAAUUAAGAGAAGGAAGAUUGUUGU [JMF's solution 6] (Eterna round: R96, puzzle: Same State NG 3)
## Result MET

---

system: K4 kissing-loop RNA reporter; assay: apparent KD of K4 kissing-loop reporter; higher = weaker reporter binding; conditions: Eterna round: R107; input ligand: FMN 200 uM;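 also: bound reporter read as fluorescence of individual clusters on recovered sequencing chips by microscopy, with normalized cluster intensities fitted with a binding model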
measurement-type: apparent KD of K4 kissing-loop reporter
Include the unit right after the number.

Example sequences with recorded apparent KD of K4 kissing-loop reporter:
sequence-input	system-tested	apparent KD of K4 kissing-loop reporter
AGCGAGAUACUUGUCUAGUAUACUACAGAUACCAGACAAGUACUAGUCCCUUGGCAGCUGUAGAUCGAGUGAUGUUCGAGUCGCU [Theo A SS t1]	K4 kissing-loop RNA reporter	527 nM
AGCUCACACGGAAGGAGCGGAUAGAACUGACAGUUGGGCUCAAGUGAUGUUUGGGCUUGAAUCCAGGUAGGUCGCCGUGUGAGCU [Arg B SS t12]	K4 kissing-loop RNA reporter	136 nM
AAUUCAAACUGAAGGAGCGAGCAAAUCGGAGUGAUGUUCCAAGCGAGUGAUGUUCGCAUAGCUCAGGUAGGUCGCAGUUUGGAUA [Same State Arginie B GF 13]	K4 kissing-loop RNA reporter	120 nM
CGAGUGAUGUUCGUUCGUUUAUUUCUUUGACAGGAUAUGCGGAAACGCAGAAGGGUCACCUUUGAGUUAAAGGAAUUUACGUUAU [Ex FMN A 26]	K4 kissing-loop RNA reporter	572 nM
GACUGGUUAACAGAUACCAGCCACAAGCGUUGAGGCGGCGGUAAAGUGAUGUUUUAUAAAGGCCCUUGGCAGCUGACUAGUUCGU [theeternabot_exclusion_KL_Theo_B_28]	K4 kissing-loop RNA reporter	371 nM

## Task Give the measured apparent KD of K4 kissing-loop reporter of GUACGCUUCCGAGUGAUGUUCGGAAAUCGCUAGGAUAUCGCUUUUGCGAGAAGGAGCGCAAUGAGGAAACUCGUUGUUAGUGUAC [FMN A 27] .
## Result 164 nM
